Hey, just so you know, these numbers are from patent US8168654B2.

target: human muscarinic acetylcholine M3 receptor (Homo sapiens); construct: expressed in transfected cells; host or cells: CHO cells, stably transfected; membranes; assay: biochemical; assay type: binding
Sequence (P20309 whole entry): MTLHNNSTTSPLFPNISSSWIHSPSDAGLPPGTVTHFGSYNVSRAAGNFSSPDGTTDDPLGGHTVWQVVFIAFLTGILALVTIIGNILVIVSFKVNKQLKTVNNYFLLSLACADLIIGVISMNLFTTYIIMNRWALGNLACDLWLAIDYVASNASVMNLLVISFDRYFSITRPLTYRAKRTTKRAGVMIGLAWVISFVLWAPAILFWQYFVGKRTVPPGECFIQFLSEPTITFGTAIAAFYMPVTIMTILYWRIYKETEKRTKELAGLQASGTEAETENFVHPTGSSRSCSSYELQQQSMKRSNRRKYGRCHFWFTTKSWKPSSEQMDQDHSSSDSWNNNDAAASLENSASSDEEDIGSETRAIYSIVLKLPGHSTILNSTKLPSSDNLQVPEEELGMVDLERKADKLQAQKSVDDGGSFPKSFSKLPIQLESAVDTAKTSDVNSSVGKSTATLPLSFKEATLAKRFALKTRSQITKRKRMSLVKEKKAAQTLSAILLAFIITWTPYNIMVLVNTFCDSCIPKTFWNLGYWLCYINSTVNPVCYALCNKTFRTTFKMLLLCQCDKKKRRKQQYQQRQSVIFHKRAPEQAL
Counter-ions that a name gives are not always drawn.
Reported endpoint: pKi
Scale: pKi equals -log10([C]), with [C] in mol/L.

Worked set:
• O=C(C[N+]12CCC(CC1)[C@@H](OC(=O)C(O)(c1ccccc1)c1ccccc1)C2)NCCc1cccs1 [Example 96, trifluoroacetate] = 8.34
• O=C(C[N+]12CCC(CC1)[C@@H](OC(=O)C(O)(c1cccs1)c1cccs1)C2)Nc1ccncn1 [Example 244] = 9.52
• O=C(C[N+]12CCC(CC1)[C@@H](OC(=O)C(O)(c1cccs1)c1cccs1)C2)Nc1cnccn1 [Example 159] = 9.15

// switching to the query molecule
Check the records and state pKi for O=C(NCC[N+]12CCC(CC1)[C@@H](OC(=O)C(O)(c1ccccc1)c1ccccc1)C2)c1cnccn1 [Example 138, trifluoroacetate]
8.66

----------
molecular target: UniProt P20309
Structures can show the parent of a compound that is named as a salt.
Reported endpoint: pKi
Scale: pKi equals -log10([C]), with [C] in mol/L.

* O=C(Cc1ccccc1)NCCC[N+]12CCC(CC1)[C@@H](OC(=O)C(O)(c1ccccc1)c1ccccc1)C2 [Example 34, trifluoroacetate] | 8.64
* O=C(C[N+]12CCC(CC1)[C@@H](OC(=O)C(O)(c1cccs1)c1cccs1)C2)Nc1ccccc1 [Example 76, trifluoroacetate] | 8.96
* O=C(NCC[N+]12CCC(CC1)[C@@H](OC(=O)C(O)(c1ccccc1)c1ccccc1)C2)C1(O)CC1 | 8.89
* O=C(C[N+]12CCC(CC1)[C@@H](OC(=O)C(O)(c1ccccc1)c1ccccc1)C2)Nc1ccon1 | 9.52

State pKi (UniProt P20309) of O=C(C[N+]12CCC(CC1)[C@@H](OC(=O)C(O)(c1ccccc1)c1ccccc1)C2)Nc1ccccc1 .
8.72
